Test system: HepG2-GM130-SQSTM1
assay-explanation: lowest phenotypically active concentration; higher = less potent
study-conditions: treatment time: 24 h
Would you kindly list lowest phenotypically active concentration for each of these compounds?
Hi! Could you send only the number? It should be in µM, unit omitted.

Request: Tell me lowest phenotypically active concentration reported for "Nc1ncnc(Nc2ccc(OCc3ccccc3)c(Cl)c2)c1/C=N/OCCN1CCOCC1"
Response: 9

Request: Tell me lowest phenotypically active concentration reported for CC(C)c1nc(CN(C)C(=O)N[C@H](C(=O)N[C@@H](Cc2ccccc2)C[C@H](O)[C@H](Cc2ccccc2)NC(=O)OCc2cncs2)C(C)C)cs1 [ritonavir]
Response: 9

Request: Tell me lowest phenotypically active concentration reported for CCSc1ccc2c(c1)N(CCCN1CCN(C)CC1)c1ccccc1S2 [thiethylperazine]
Response: 9

Request: Tell me lowest phenotypically active concentration reported for "O=[N+]([O-])c1cc(Cl)ccc1S(=O)(=O)c1ccccc1"
Response: 3

Request: Tell me lowest phenotypically active concentration reported for "Cc1cccc(-c2nn(C(=S)Nc3ccccc3)cc2-c2ccnc3ccccc23)n1"
Response: 9

Request: Tell me lowest phenotypically active concentration reported for COc1c(C=O)c(O)cc2c1C(=O)c1ccccc1C2=O [Damnacanthal]
Response: 9

Request: Tell me lowest phenotypically active concentration reported for O=C(CCCCCCC(=O)Nc1cccnc1)NO [Pyroxamide]
Response: 3

Hello, the source for this data is the supplement of paper PMC7411054, in case you need it.
